# Experiment: Pharmacokinetics of released PEGylated protease inhibitor following P.O. administration of prodrugs in rats
# Type: in vivo, male Sprague-Dawley rats
# Measurement Conditions: mPEG6-atazanavir in plasma after PO administration of mPEG6-ATV or of the listed prodrug, rats (n = 4-5)
# key: entry, value: Tmax Median
Readout Label: Tmax Median (h)

>>> recorded_result("CCC(=O)O[C@@H](CN(Cc1ccc(-c2ccccn2)cc1)NC(=O)[C@@H](NC(=O)OC)C(C)(C)C)[C@H](Cc1ccccc1)NC(=O)[C@@H](NC(=O)OCCOCCOCCOCCOCCOCCOC)C(C)(C)C [C2H5CO-mPEG6-ATV, mPEG6-Atazanavir Propionate]")
2.00
>>> recorded_result("COCCOCCOCCOCCOCCOCCOC(=O)NC(C(=O)NC(Cc1ccccc1)C(CN(Cc1ccc(-c2ccccn2)cc1)NC(=O)C(NC(=O)OC)C(C)(C)C)OCOC)C(C)(C)C (stereo not shown) [mPEG6-Atazanavir-methyl methyl ether, mPEG6-Atazanavir Methyl Methyl Ether]")
1.50
>>> recorded_result("COCCOCCOCCOCCOCCOCCOC(=O)NC(C(=O)NC(Cc1ccccc1)C(CN(Cc1ccc(-c2ccccn2)cc1)NC(=O)C(NC(=O)OC)C(C)(C)C)OC(=O)COCCOC(=O)C(Cc1ccccc1)NC(=O)C(N)Cc1ccccc1)C(C)(C)C (stereo not shown) [mPEG6-ATV-CME-Phe-Phe, mPEG6-atazanavir-ethoxy-CME-Phe-Phe]")
3.25
>>> recorded_result("COCCOCCOCCOCCOCCOCCOC(=O)NC(C(=O)NC(Cc1ccccc1)C(CN(Cc1ccc(-c2ccccn2)cc1)NC(=O)C(NC(=O)OC)C(C)(C)C)OC(=O)C(N)C(C)C)C(C)(C)C.Cl [mPEG6-ATV-L-valine, mPEG6-Atazanavir-L-Valine HCl]")
12.0
>>> recorded_result("COCCOCCOCCOCCOCCOCCOC(=O)N[C@H](C(=O)N[C@@H](Cc1ccccc1)[C@H](CN(Cc1ccc(-c2ccccn2)cc1)NC(=O)[C@@H](NC(=O)OC)C(C)(C)C)OC(=O)[C@H](Cc1ccccc1)NC(=O)[C@@H](N)CC(C)C)C(C)(C)C.Cl [Leu-Phe-mPEG6-ATV, Leu-Phe-mPEG6-Atazanavir Hydrochloride]")
1.50
>>> recorded_result("COCCOCCOCCOCCOCCOCCOC(=O)NC(C(=O)NC(Cc1ccccc1)C(CN(Cc1ccc(-c2ccccn2)cc1)NC(=O)C(NC(=O)OC)C(C)(C)C)OC(=O)COCCOC(=O)C(N)Cc1ccccc1)C(C)(C)C.Cl (stereo not shown) [mPEG6-Atazanavir-CME-phenylalanine HCl]")
1.00
>>> recorded_result("CCCCCCCCCCCCCCCCOCC(COP(=O)(O)OC(CN(Cc1ccc(-c2ccccn2)cc1)NC(=O)C(NC(=O)OC)C(C)(C)C)C(Cc1ccccc1)NC(=O)C(NC(=O)OCCOCCOCCOCCOCCOCCOC)C(C)(C)C)OC (stereo not shown) [mPEG6-Atazanavir-monophospholipid, mPEG6-atazanavir monophospholipid]")
0.250
